Listed molecules paired with reported TGI
System: TK-10 renal
measurement_protocol: NCI tumour cell line growth inhibition, 48 h
reported_property: TGI

- molecule: "COc1ccc(C2SC(N)=Nc3c2c(C)nn3C(=O)c2ccncc2)cc1OC (centres undefined)"
  reported_measurement: "> 10 µM"
- molecule: "CN1C(=O)c2ccccc2OC12C=Cc1c(ccc3ccccc13)O2 (centres undefined)"
  reported_measurement: "> 61 µM"
- molecule: "NC(=S)N/N=C(\\CC1OC(=O)c2ccccc21)c1ccc(Cl)cc1 (centres undefined)"
  reported_measurement: "> 100 µM"
- molecule: "C=CCn1c(N)c(C#N)c(C#N)c1-c1ccccc1"
  reported_measurement: "> 100 µM"
- molecule: "CC(=O)Nc1ccc(N=Nc2c(O)c(S(=O)(=O)O)cc3cc(S(=O)(=O)O)ccc23)cc1"
  reported_measurement: "> 100 µM"
- molecule: "Clc1ccc2c(c1)[nH]c1c2nc2ccccn21"
  reported_measurement: "31.2 µM"
- molecule: "C[n+]1c2ccc(Cl)cc2nc2cc(-c3ccccc3)ccc21"
  reported_measurement: "43.2 µM"
- molecule: "N.N.N.N.O=C([O-])CCl.O=C([O-])CCl.[Co+3].[O-][Cl+3]([O-])([O-])[O-]"
  reported_measurement: "> 100 µM"
- molecule: "Nc1ccc([N+](=O)[O-])cc1N=C/C=C/c1ccccc1"
  reported_measurement: "> 100 µM"
- molecule: "CN1CCN(C2CCN(C(=O)Nc3cc(Oc4ccc(NC(=O)C5(C(=O)Nc6ccc(F)cc6)CC5)c(F)c4)ccn3)CC2)CC1"
  reported_measurement: "> 10 µM"
- molecule: "CC(C)(C)OC(=O)N(CCCCN(CCCNC(=O)C(F)(F)F)C(=O)OC(C)(C)C)CCCNC(=O)C(F)(F)F"
  reported_measurement: "> 100 µM"
- molecule: "CCOC(=O)C1=CN(C)C=C(C(=O)OCC)C1c1cc(Br)c(OCC)c(OC)c1"
  reported_measurement: "> 100 µM"
- molecule: "Nc1c(C(=O)O)nnc2ccc(Cl)cc12"
  reported_measurement: "> 100 µM"
- molecule: "COC(=O)/C=C(\\C(=O)OC)C1C(=O)Oc2c(C)c(=O)c3ccccc3n21 (centres undefined)"
  reported_measurement: "> 100 µM"
- molecule: "CN1CCc2c([nH]c3ccccc23)C1"
  reported_measurement: "> 100 µM"
- molecule: "CCCCOC(=O)CNC(=O)OC/C=C/C#CC#C/C=C/COC(=O)NCC(=O)OCCCC"
  reported_measurement: "> 100 µM"
- molecule: "O=c1[nH]cnc2c1cnn2Cc1cn(CCCCO)nn1"
  reported_measurement: "> 100 µM"
- molecule: "O=[N+]([O-])c1ccc2[nH]c(=S)[nH]c(=S)c2c1"
  reported_measurement: "> 100 µM"
- molecule: "c1ccc(N=C(N2CCCC2)N(CCN2CCCC2)c2ccccc2)cc1"
  reported_measurement: "> 100 µM"
- molecule: "N#Cc1c(N)nc(N2CCOCC2)c(C#N)c1-c1ccncc1"
  reported_measurement: "> 100 µM"
- molecule: "CC(=O)Nc1ccc(S(=O)(=O)N2C(=O)CCC2C(=O)Nc2ccc(Br)cc2)cc1 (centres undefined)"
  reported_measurement: "15.4 µM"
- molecule: "O=C(Nc1ccc2ncccc2c1)Nc1ccc2ncccc2c1"
  reported_measurement: "> 100 µM"
- molecule: "O=C(CCN(C(=O)O)S(=O)(=O)c1ccc(NC(=O)c2ccccc2)cc1)Nc1ccccc1"
  reported_measurement: "> 100 µM"
- molecule: "O=C1Sc2cc3ccccc3cc2C(=O)Sc2ccc(Br)cc21"
  reported_measurement: "17.8 µM"
- molecule: "CCOc1ncn(-c2ccc(NC(=S)Nc3ncccn3)cc2)n1"
  reported_measurement: "> 100 µM"
- molecule: "S=C(Nc1ccc(Cl)cc1)Nc1ccc(-c2nc3ccccc3s2)cc1"
  reported_measurement: "44.5 µM"
- molecule: "CCN(CC)CCNc1ccc2nnn3c4ccc(OCCN(CC)CC)cc4c(=O)c1c23"
  reported_measurement: "> 100 µM"
- molecule: "O=c1sc2ccccc2n1CC1CS1 (centres undefined)"
  reported_measurement: "> 100 µM"
- molecule: "COc1ccc(OC)c2c1[nH]c(=O)c1c3ccccc3cn21"
  reported_measurement: "3.76 µM"
- molecule: "CC(=O)CCn1c(=S)sc2ccccc21"
  reported_measurement: "> 100 µM"
- molecule: "COc1cc2c(cc1OC)C(CC1=C(c3ccccc3)CN3CCc4cc(OC)c(OC)cc4C3C1)NCC2 (centres undefined)"
  reported_measurement: "32.7 µM"
- molecule: "COc1cc(C2C3C=CC=C4CC=CC(=C43)C3CCC(=O)N32)cc(OC)c1OC (centres undefined)"
  reported_measurement: "> 100 µM"
- molecule: "O=C1C=CC(=O)c2c1ccc1c3ccccc3n(CCCCCn3c4ccccc4c4ccc5c(c43)C(=O)C=CC5=O)c21"
  reported_measurement: "26.8 µM"
- molecule: "COc1cc(C(=O)N2CCN(C=O)C2=S)cc(OC)c1OC"
  reported_measurement: "36.7 µM"
- molecule: "O=P(O)(O)CCP(=O)(O)O"
  reported_measurement: "> 100 µM"
- molecule: "CC[As](CC)SC[C@H](C)C(=O)N1CCC[C@H]1C(=O)O"
  reported_measurement: "0.396 µM"
- molecule: "O=C(O)COc1ccc2c(=O)c3sc4c(=O)c5ccccc5c(=O)c4c3c(=O)c2c1"
  reported_measurement: "46.5 µM"
- molecule: "NC(N)=NCCN1CC2CCC(CC2)C1"
  reported_measurement: "> 100 µM"
- molecule: "C[N+](C)(C)CC1CCCc2ccccc2C1=O (centres undefined)"
  reported_measurement: "36.8 µM"
- molecule: "Fc1ccc2c(c1)nc1n2C(c2c(Cl)cccc2Cl)SC1 (centres undefined)"
  reported_measurement: "31.6 µM"
- molecule: "C/C=C(\\C)C(=O)O[C@H]1C=CC(=O)O[C@H]1CCC(=O)[C@H](C)O"
  reported_measurement: "34 µM"
- molecule: "COC[C@@H](N=CC(C)(C)C)C(C)C"
  reported_measurement: "> 100 µM"
- molecule: "CN(C)c1ccc(/C=c2/c3ccccc3n3c2c2c([n+]3C)CCCC2)cc1"
  reported_measurement: "1.55 µM"
- molecule: "[N-]=[N+]=Nc1c([N+](=O)[O-])c(=O)n(-c2ccccc2)c2ccccc12"
  reported_measurement: "44.2 µM"

---

System: 786-0 renal
measurement_protocol: NCI tumour cell line growth inhibition, 48 h

- compound: "COc1cc(C2c3cc4c(cc3OC(N3CCCCC3)C2C)OCO4)cc(OC)c1O (stereo unspecified)"
  TGI: "27.7 µM"
- compound: "O=S(=O)(O)CCCc1cccc2ccccc12"
  TGI: "> 100 µM"
- compound: "C=C(Cl)C(=CCl)CCC(Br)C(C)(C)Cl (mixture of isomers)"
  TGI: "> 10 µM"
- compound: "O=c1oc2ccc3ccccc3c2cc1-c1nc2ccccc2s1"
  TGI: "> 100 µM"
- compound: "CCC(=O)CC(=O)CCC(=O)Nc1cc(C)ccc1C"
  TGI: "> 100 µM"
- compound: "O=[N+]([O-])c1cccc(C2=NN(c3ccccc3)C[N+](c3ccc(Br)cc3)=N2)c1"
  TGI: "> 100 µM"
- compound: "CCOC(=O)c1ccc(NC(=O)Oc2ccc3c(C)cc(=O)oc3c2)cc1"
  TGI: "> 100 µM"
- compound: "Cc1ccc(S(=O)(=O)Nc2ccccc2C=O)cc1"
  TGI: "35.9 µM"
- compound: "Cc1n(Cc2ccccc2)c2c([n+]1C)C(=O)c1ccccc1C2=O"
  TGI: "0.877 µM"
- compound: "CC(=O)OC(OC(C)=O)c1ccc2ccc3cccc4ccc1c2c34"
  TGI: "> 100 µM"
- compound: "O=C(O)CCCc1nc2c(n1Cc1ccccc1)C(=O)c1ccccc1C2=O"
  TGI: "> 100 µM"
- compound: "CCN1CCN(C(=O)[C@@]2(C)CC[C@]3(C)CC[C@]4(C)C(=CC(=O)[C@@H]5[C@@]6(C)CC[C@H](OC7C[C@@H](O)[C@@H](O)C(C)O7)C(C)(C)[C@@H]6CC[C@]54C)[C@@H]3C2)CC1 (stereo partly specified)"
  TGI: "1.82 µM"
- compound: "CC1(C)CC(=O)C(C=NC(=S)c2ccccc2)=C(O)C1"
  TGI: "> 100 µM"
- compound: "CO[C@@]12C[C@@H](C)C3=CCC(C)=C3CC1=C(C)C(=O)O2"
  TGI: "> 100 µM"
- compound: "NC(N)=NS(=O)(=O)c1ccc(NNc2c3ccccc3nc3c(C(=O)Nc4ccc(S(=O)(=O)Nc5ncccn5)cc4)cccc23)cc1"
  TGI: "> 100 µM"
- compound: "CC1CC(OP(=O)(OCc2ccccc2)OCc2ccccc2)[C@@H](OCc2ccccc2)C(OCc2ccccc2)C1OCc1ccccc1 (stereo partly specified)"
  TGI: "> 100 µM"
- compound: "O=C1CCC2(c3ccc(Cl)cc3)Nc3ncccc3N12 (stereo unspecified)"
  TGI: "> 100 µM"
- compound: "O=c1oc2ccccc2cc1-c1cc2ccccn2c1"
  TGI: "> 100 µM"
- compound: "Fc1ccc2c(c1)nc1n2C(c2c(Cl)cccc2Cl)SC1 (stereo unspecified)"
  TGI: "29.5 µM"
- compound: "NS(=O)(=O)c1ccc(/C=C/c2ccc(O)c(O)c2)cc1"
  TGI: "> 100 µM"
- compound: "CC1(C)OC(C(=O)Nc2cc3c4ccccc4ccc3c3ccccc23)C(C(=O)N2CCCCC2)O1 (stereo unspecified)"
  TGI: "> 100 µM"
- compound: "O=C1c2ccccc2C(=O)c2c(NCC(O)CO)ccc(NCC(O)CO)c21 (stereo unspecified)"
  TGI: "> 100 µM"
- compound: "CC1=NN(c2nc(N)nc(/C(C#N)=C\\c3ccc([N+](=O)[O-])s3)n2)C(C)(C)C1"
  TGI: "0.289 µM"
- compound: "CNCc1ccccc1-c1csc([C@@H](C)Nc2nc(C)nc3cc(OC)c(OC)cc23)c1"
  TGI: "2.87 µM"
- compound: "CCN(CC)CCNc1ccc2nnn3c4ccc(OCCN(CC)CC)cc4c(=O)c1c23"
  TGI: "> 100 µM"
- compound: "CC1(C)S[C@@H]2[C@H](NC(=O)C3(N)CCCCC3)C(=O)N2[C@H]1C(=O)O"
  TGI: "> 100 µM"
- compound: "CC12C/C(=C\\c3ccccc3)C(=O)C3C1CCCC32"
  TGI: "> 100 µM"
- compound: "COc1ccc2occ(CCC(=O)O)c2c1"
  TGI: "> 100 µM"
- compound: "COC(=O)COc1ccccc1/C=C1\\N=C(c2ccccc2)N(c2cc(C(F)(F)F)ccc2Cl)C1=O"
  TGI: "> 100 µM"
- compound: "c1ccc2cc(-c3cc4ccccc4s3)ccc2c1"
  TGI: "> 100 µM"
- compound: "COc1cc(OC)cc(Oc2nc3ccccc3nc2C(F)(F)F)c1"
  TGI: "> 100 µM"
- compound: "COc1cc2c(cc1OC)C(CC1=C(c3ccccc3)CN3CCc4cc(OC)c(OC)cc4C3C1)NCC2 (stereo unspecified)"
  TGI: "29.5 µM"
- compound: "COC(=O)c1c(O)ccc2c1c1c(n2Cc2cc(OC)cc(OC)c2)C(=O)c2ccccc2C1"
  TGI: "> 100 µM"
- compound: "C/C=C/C(CC(O)(C(F)(F)F)C(F)(F)F)=N/NC(N)=S"
  TGI: "> 10 µM"
- compound: "c1ccc(-c2nnc(-c3ccccn3)s2)nc1"
  TGI: "> 100 µM"
- compound: "O=C(Nc1ccc(Br)cc1F)c1cc(F)ccc1O"
  TGI: "7.49 µM"
- compound: "CCOC(=O)CCC(NC(=O)Cc1ccc(Nc2nc3cc(F)c(F)cc3nc2C(=O)OCC)cc1)C(=O)OCC (stereo unspecified)"
  TGI: "> 100 µM"
- compound: "COc1cc(OC)c2nc(C)c(CCCl)c(Cl)c2c1"
  TGI: "> 100 µM"
- compound: "Cn1c(=O)c2c(ncn2CCNC(CO)C(O)c2ccc([N+](=O)[O-])cc2)n(C)c1=O (stereo unspecified)"
  TGI: "> 100 µM"
- compound: "Cc1c(C)c2c(c(N)c1C#N)C(=O)N(NC(=O)c1ccccc1)C2=O"
  TGI: "> 100 µM"
- compound: "N=C(N)C1CN(CCc2c[nH]c3ccccc23)C(=O)NC1=O (stereo unspecified)"
  TGI: "> 100 µM"
